# System: HeLa cervical cancer cell line
# assay_protocol: In-vitro cell survival assay (Alamar blue), HeLa
# Assay type: cell-based
# details: Homo sapiens, 24 h, one day after compound addition
# Protocol: Five tumor-derived cell lines were treated with the ROS inhibitor compounds and cell survival was monitored to determine the cancer prohibition effects of the compounds. The cell lines included HeLa, a cervical cancer cell line, and four glioblastoma cell lines U138, U87, LN18, and U118. […] The assay used Alamar blue as a redox-sensitive dye that interrogates mitochondrial fitness of cells, and these assays provided a readout for cell proliferation and viability. […]
pEC50: −log10 of the molar value.
observation_type: pEC50

Record pEC50 per entry; entries follow.
1. CC(=O)N[C@@H]1CCN(C(=O)c2cccc(Nc3cc(N(C)c4cccc(C)c4)ncn3)c2)C1 [drawing 378]
2. O=C(NNc1nc2ccccc2nc1Cc1ccccc1)c1cccc(Cl)c1 [drawing 366]
3. CC(C)c1nc(Nc2ccc(C(=O)NCc3ccccc3)cc2)nc(Nc2cccc(Cc3nc4ccccc4s3)c2)n1 [drawing 453]
4. CN1CCN(C(=O)c2cccc(Nc3ncc(Cl)c(Nc4ccc5ncsc5c4)n3)c2)CC1 [drawing 466]
5. Cc1cccc(C(=O)n2nc(-c3ccco3)nc2NCc2ccccc2)c1 [drawing 431]

1. < 4.00
2. < 4.00
3. < 4.00
4. 5.70
5. < 4.00

----------
# Test system: U118 glioblastoma cell line
# assay_protocol: In-vitro cell survival assay (Alamar blue), U118
# Format: cell-based
# details: 24 h; U118, one day after compound addition
observation_type: pEC50
Numbers only, as −log10 of the molar value.

// below: answered compounds
compound | pEC50
Clc1nccc(Nc2cc(C3CC3)[nH]n2)n1 [drawing 435] | 4.51
Nc1nc(Nc2ccc(C(=O)NCc3ccco3)cc2)cc(Nc2ccc3ncsc3c2)n1 [drawing 375] | 4.57
O=C(NCc1cccs1)c1cccc(Nc2nccc(Nc3ccc4ncsc4c3)n2)c1 [drawing 410] | 4.64

Record pEC50 per entry; entries follow.
1. Cc1cccc(Nc2nccc(Nc3cccc(C(=O)NCc4ccccc4F)c3)n2)c1 [drawing 412]
2. O=C(NCC(c1cccs1)S(=O)(=O)c1ccc(F)cc1)c1ccccc1 (stereo not drawn) [drawing 434]

4.80
4.27

----------
# Test system: LN18 glioblastoma cell line
# assay_protocol: In-vitro cell survival assay (Alamar blue), LN18
# Assay type: cell-based
# details: Homo sapiens, LN-18, 24 h; LN18, one day after compound addition
Give measured pEC50 for each item. Keep answers brief.
Give bare numbers, as −log10 of the molar value.

// below: answered compounds
compound | observation_type | assay_result
COc1cccc(Nc2nc(N)c(C(=O)c3c(C)[nH]c4ccccc34)s2)c1 [drawing 384] | pEC50 | 5.00
C1=C(c2cccc(Nc3nccc(Nc4ccc5ncsc5c4)n3)c2)CCNC1 [drawing 441] | pEC50 | 4.66
CC(C)c1nc(Nc2ccc(C(=O)NCc3ccccc3)cc2)nc(Nc2ccc3ncsc3c2)n1 [drawing 459] | pEC50 | 4.10

Record pEC50 per entry; entries follow.
1. O=C(NCc1cccs1)c1cccc(Nc2nccc(Nc3ccc4ncsc4c3)n2)c1 [drawing 410]
2. CC(C)c1nc(Nc2ccc(C(=O)N3CCN(C)CC3)cc2)nc(Nc2ccc3ncsc3c2)n1 [drawing 458]
3. Cc1cccc(Nc2nccc(Nc3cccc(C(=O)NCCCN4CCOCC4)c3)n2)c1 [drawing 416]
4. O=C(NNc1cc(C(F)(F)F)ccc1Cl)c1cccnc1Oc1ccccc1 [drawing 390]
5. CN1CCN(C(=O)c2cccc(Nc3nccc(Nc4ccc5ncsc5c4)n3)c2)CC1 [drawing 415]
6. CC(C)CN(CC(C)C)C(=O)c1cccc(Nc2nccc(Nc3ccc4ncsc4c3)n2)c1 [drawing 424]
7. Cc1cccc(Nc2ccnc(Nc3cccc(C(=O)N4CC=CCC4)c3)n2)c1 [drawing 371]

1: 4.96; 2: 4.40; 3: 4.40; 4: 4.24; 5: 4.85; 6: 4.66; 7: 4.89

Record pEC50 per entry; entries follow.
1. CC(C)c1nc(Nc2ccc(C(=O)N3CCCC3)cc2)nc(Nc2ccc3ncsc3c2)n1 [drawing 457]
2. c1cc(Nc2cc(C3CC3)[nH]n2)nc(Nc2ccc(NCc3cc(C4OCCO4)c(C4OCCO4)s3)cc2)n1 [drawing 437]
3. Cc1cccc(Nc2nccc(Nc3cccc(C(=O)NCCN4CCOCC4)c3)n2)c1 [drawing 381]
4. CC(C)c1nc(Nc2ccc3ncsc3c2)nc(N2CCCC2)n1 [drawing 451]
5. Clc1ccc2nc(NCc3ccccn3)nc(-c3ccccc3)c2c1 [drawing 357]
6. COc1ccc(C2=CCNCC2)cc1Nc1nccc(Nc2ccc3ncsc3c2)n1 [drawing 467]

1: 4.70; 2: 4.85; 3: 4.96; 4: 4.40; 5: 4.80; 6: 4.82
